residual activity 1A8 reference
molecular target: UGT1A8 (Homo sapiens); settings: 50 μM PC components; recombinant human UGT; mean of triplicate
Sequence (Q9HAW9 26-530): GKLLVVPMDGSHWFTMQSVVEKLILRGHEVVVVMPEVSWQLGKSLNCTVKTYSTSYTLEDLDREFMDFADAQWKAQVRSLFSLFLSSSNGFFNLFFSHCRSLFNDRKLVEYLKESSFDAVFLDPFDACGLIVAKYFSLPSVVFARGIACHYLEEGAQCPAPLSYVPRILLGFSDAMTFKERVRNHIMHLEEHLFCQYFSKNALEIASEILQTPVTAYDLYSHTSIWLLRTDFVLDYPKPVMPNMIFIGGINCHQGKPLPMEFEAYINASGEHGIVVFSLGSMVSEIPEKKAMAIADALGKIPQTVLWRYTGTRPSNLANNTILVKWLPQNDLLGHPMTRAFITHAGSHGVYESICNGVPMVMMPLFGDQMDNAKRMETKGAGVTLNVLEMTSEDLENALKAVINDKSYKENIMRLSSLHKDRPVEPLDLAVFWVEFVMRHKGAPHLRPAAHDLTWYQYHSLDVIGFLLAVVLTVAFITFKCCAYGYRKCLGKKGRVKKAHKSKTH

[
  {
    "smiles-representation": "CCCCCCCCCCCCC(=O)OC[C@H](COP(=O)([O-])OCC[N+](C)(C)C)OC(=O)CCCCCCCCCCCC",
    "residual activity 1A8 (%)": 114.3
  },
  {
    "smiles-representation": "CCCCCCCCCCCCCCC(=O)OC[C@H](COP(=O)([O-])OCC[N+](C)(C)C)OC(=O)CCCCCCCCCCCCCC",
    "residual activity 1A8 (%)": 105.9
  },
  {
    "smiles-representation": "CCCCCCCCCCCCCCCCCCCC(=O)OC[C@H](COP(=O)([O-])OCC[N+](C)(C)C)OC(=O)CCCCCCCCCCCCCCCCCCC",
    "residual activity 1A8 (%)": 94.9
  },
  {
    "smiles-representation": "CCCCCCCCC(=O)OC[C@H](COP(=O)([O-])OCC[N+](C)(C)C)OC(=O)CCCCCCCC",
    "residual activity 1A8 (%)": 33.2
  }
]
